- TARGET_DESC: T1, Bcd homeodomain (Drosophila melanogaster, UniProt P09081-2 77-166)
- T1 sequence: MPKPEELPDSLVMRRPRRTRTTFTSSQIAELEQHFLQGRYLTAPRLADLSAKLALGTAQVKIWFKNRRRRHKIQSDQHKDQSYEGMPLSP
- ASSAY_PROTOCOL: EMSA; 20 mM Tris-acetate pH 7.0, 50 "nM" NaCl as printed (probably mM), 0.01% Tween 20, 0.1 mM DTT, 10% glycerol; room temperature; 4 nM probe
- ASSAY_SETUP: tags: N-GST (pGEX-6P-1, kept); label: Cy3
RESULT_TYPE: Kd (nM)

• Bcd EMSA probe (dsDNA) DNA 1: TCGACCGTAATCCCTA DNA 2: TAGGGATTACGGTCGA = 1.8
